Reference source for all entries: ChEMBL document CHEMBL1201862

What GI50 was measured for each of the following?
system: SNB-78; assay: NCI tumour cell line growth inhibition, 48 h
The source made the active and inactive calls. Cut-off read from the data, not from the text of the source: active = GI50 up to about 1.1 µM and inactive = higher.

Ask | Which measured GI50 value corresponds to Cc1ccc(S(=O)(=O)NCC2CCCCC2=O)cc1 (stereo not given) ?
Reply | > 100 µM (inactive)

Ask | Which measured GI50 value corresponds to COC(=O)C1=Cc2cc3c(cc2[C@H](c2ccc4c(c2)OCO4)C1C(=O)OC)OCO3 (stereo not given in full) ?
Reply | > 100 µM (inactive)

Ask | Which measured GI50 value corresponds to CSc1ccc(N2C(=O)C3c4[nH]c5ccccc5c4C4CCC(C(C)(C)C)CC4C3C2=O)cc1 (stereo not given) ?
Reply | 7.94 µM (inactive)

Ask | Which measured GI50 value corresponds to Cc1noc(/N=C2\C=C(Nc3onc(C)c3C)C(=O)c3ccccc32)c1C ?
Reply | > 100 µM (inactive)

Ask | Which measured GI50 value corresponds to O=C1NC(=O)C2C(=O)NC(=O)C1C2(c1ccccc1)c1ccc(Cl)cc1 (stereo not given) ?
Reply | > 100 µM (inactive)
